IC50, Mtb CoaB (Mycobacterium tuberculosis, UniProt P9WNZ1): measured values
Numbers only, in µM.

> print(dat)
                           smiles.repr                                    system  reading.unit  recorded.value
1      Cc1nn(-c2ccccc2)c(O)c1Sc1ccccc1  Mtb CoaB (Mycobacterium tuberculosis, UniProt P9WNZ1)            µM             9.9
2  Cc1nn(-c2ccccc2)c(O)c1Sc1ccc(Cl)cc1  Mtb CoaB (Mycobacterium tuberculosis, UniProt P9WNZ1)            µM               4
3   Cc1ccc(Sc2c(C)nn(-c3ccccc3)c2O)cc1  Mtb CoaB (Mycobacterium tuberculosis, UniProt P9WNZ1)            µM             3.3

// returns reported IC50 for input `COc1ccc(Sc2c(C)nn(-c3ccccc3)c2O)cc1`
2.8
